Kd by entry:
# TGT: T1, human Granzyme B (human, UniProt P10144 21-247)
# T1 construct: Captured on a Series S Streptavidin chip for SPR; also called hGranzyme B; GzmB
# ASSAY_REMARKS: SPR, Biacore 8k+, hGranzyme B captured on SA chip, single cycle kinetics, 1:1 model
Bridge positions count the residues as written; N and C are the ends.
ATTRIBUTE_MEASURED: Kd (nM)

1. {CH2CO}-FNFEDQSATTWQPCG-NH2 (thioether N-14; SMILES C[C@@H]1NC(=O)[C@H](CO)NC(=O)[C@H](CCC(N)=O)NC(=O)[C@H](CC(=O)O)NC(=O)[C@H](CCC(=O)O)NC(=O)[C@H](Cc2ccccc2)NC(=O)[C@H](CC(N)=O)NC(=O)[C@H](Cc2ccccc2)NC(=O)CSC[C@@H](C(=O)NCC(N)=O)NC(=O)[C@@H]2CCCN2C(=O)[C@H](CCC(N)=O)NC(=O)[C@H](Cc2c[nH]c3ccccc23)NC(=O)[C@H]([C@@H](C)O)NC(=O)[C@H]([C@@H](C)O)NC1=O) [Compound 82a] : 45.8
2. {CH2CO}-FNFEDQSAETWQPCG-NH2 (thioether N-14; SMILES C[C@@H]1NC(=O)[C@H](CO)NC(=O)[C@H](CCC(N)=O)NC(=O)[C@H](CC(=O)O)NC(=O)[C@H](CCC(=O)O)NC(=O)[C@H](Cc2ccccc2)NC(=O)[C@H](CC(N)=O)NC(=O)[C@H](Cc2ccccc2)NC(=O)CSC[C@@H](C(=O)NCC(N)=O)NC(=O)[C@@H]2CCCN2C(=O)[C@H](CCC(N)=O)NC(=O)[C@H](Cc2c[nH]c3ccccc23)NC(=O)[C@H]([C@@H](C)O)NC(=O)[C@H](CCC(=O)O)NC1=O) [Compound 73a] : 21.3
3. {CH2CO}-FNFEDQSPATWQPCG-NH2 (thioether N-14; SMILES C[C@@H]1NC(=O)[C@@H]2CCCN2C(=O)[C@H](CO)NC(=O)[C@H](CCC(N)=O)NC(=O)[C@H](CC(=O)O)NC(=O)[C@H](CCC(=O)O)NC(=O)[C@H](Cc2ccccc2)NC(=O)[C@H](CC(N)=O)NC(=O)[C@H](Cc2ccccc2)NC(=O)CSC[C@@H](C(=O)NCC(N)=O)NC(=O)[C@@H]2CCCN2C(=O)[C@H](CCC(N)=O)NC(=O)[C@H](Cc2c[nH]c3ccccc23)NC(=O)[C@H]([C@@H](C)O)NC1=O) [Compound 44a] : 3.5
4. {CH2CO}-FNFEDQSARTWQPCG-NH2 (thioether N-14; SMILES C[C@@H]1NC(=O)[C@H](CO)NC(=O)[C@H](CCC(N)=O)NC(=O)[C@H](CC(=O)O)NC(=O)[C@H](CCC(=O)O)NC(=O)[C@H](Cc2ccccc2)NC(=O)[C@H](CC(N)=O)NC(=O)[C@H](Cc2ccccc2)NC(=O)CSC[C@@H](C(=O)NCC(N)=O)NC(=O)[C@@H]2CCCN2C(=O)[C@H](CCC(N)=O)NC(=O)[C@H](Cc2c[nH]c3ccccc23)NC(=O)[C@H]([C@@H](C)O)NC(=O)[C@H](CCCNC(=N)N)NC1=O) [Compound 28a] : 18
5. {CH2CO}-FNFEDQSADTWQPCGGK-NH2 (thioether N-14, also called 2b) [Compound 26a] : 15.4
6. {CH2CO}-FNFEDQSPSTWQPCG-NH2 (thioether N-14; SMILES C[C@@H](O)[C@@H]1NC(=O)[C@H](CO)NC(=O)[C@@H]2CCCN2C(=O)[C@H](CO)NC(=O)[C@H](CCC(N)=O)NC(=O)[C@H](CC(=O)O)NC(=O)[C@H](CCC(=O)O)NC(=O)[C@H](Cc2ccccc2)NC(=O)[C@H](CC(N)=O)NC(=O)[C@H](Cc2ccccc2)NC(=O)CSC[C@@H](C(=O)NCC(N)=O)NC(=O)[C@@H]2CCCN2C(=O)[C@H](CCC(N)=O)NC(=O)[C@H](Cc2c[nH]c3ccccc23)NC1=O) [Compound 57a] : 5.7
7. {CH2CO}-FNFEDQSPGTWQPCG-NH2 (thioether N-14; SMILES C[C@@H](O)[C@@H]1NC(=O)CNC(=O)[C@@H]2CCCN2C(=O)[C@H](CO)NC(=O)[C@H](CCC(N)=O)NC(=O)[C@H](CC(=O)O)NC(=O)[C@H](CCC(=O)O)NC(=O)[C@H](Cc2ccccc2)NC(=O)[C@H](CC(N)=O)NC(=O)[C@H](Cc2ccccc2)NC(=O)CSC[C@@H](C(=O)NCC(N)=O)NC(=O)[C@@H]2CCCN2C(=O)[C@H](CCC(N)=O)NC(=O)[C@H](Cc2c[nH]c3ccccc23)NC1=O) [Compound 65a] : 11
8. {CH2CO}-FNFEDQSAQTWQPCG-NH2 (thioether N-14; SMILES C[C@@H]1NC(=O)[C@H](CO)NC(=O)[C@H](CCC(N)=O)NC(=O)[C@H](CC(=O)O)NC(=O)[C@H](CCC(=O)O)NC(=O)[C@H](Cc2ccccc2)NC(=O)[C@H](CC(N)=O)NC(=O)[C@H](Cc2ccccc2)NC(=O)CSC[C@@H](C(=O)NCC(N)=O)NC(=O)[C@@H]2CCCN2C(=O)[C@H](CCC(N)=O)NC(=O)[C@H](Cc2c[nH]c3ccccc23)NC(=O)[C@H]([C@@H](C)O)NC(=O)[C@H](CCC(N)=O)NC1=O) [Compound 74a] : 23.9
